- experimentalDetails: Cmax in plasma of C57BL/6 mouse at 30 mg/kg, sc measured for 6 hrs by LC/MS-MS analysis
- Type: ADME, organism-based
- Design: time 6 hrs, dose 30 mg/kg, route sc
Record form. Attribute: Cmax. Fill in for each entry.
Answers are plain numbers, in ng/mL.

1. CC1(C)Cn2nc(-c3ccc(F)cn3)c(-c3ccnc4[nH]ncc34)c2CO1; 4110

Q: I'd like to know its Cmax. The molecule in question is [2H]C([2H])([2H])C1(C([2H])([2H])[2H])Cn2nc(-c3ccc(F)cn3)c(-c3ccnc4[nH]ncc34)c2CO1
A: 8850

====

- experimentalDetails: Oral bioavailability in C57BL/6 mouse at 30 mg/kg measured for 6 hrs by LC/MS-MS analysis
- Type: ADME, organism-based
- setupConditions: in vivo
assayReadout: bioavailability (%)
Answers are plain numbers, in %.

Q: I'd like to know its bioavailability. The compound in question is CC1(C)Cn2nc(-c3ccc(F)cn3)c(-c3ccnc4[nH]ncc34)c2CO1
A: 53
